assay_info: soluble on expression in E. coli; label from the status in PepcDB or PDB records

{"record_sequence": "SNAMDKYPFLREAGSSFKDRDVTKMSDLIATWDGQDIKGPALIGVPLSKSSISHSGASFAPGTIRQALKHSSAYSAELGEHVVSELLYDLGDIDIHVTDIVKSHHHIFQTMHALLSDHPDWVPLILGGDNSISYSTIKAIAQTKGTTAVIQFDAHHDVRNTEDGGPTNGTPFRRLLDEEIIEGQHLIQLGIREFSNSQAYEAYAKKHNVNIHTMDMIREKGLIPTIKEILPVVQDKTDFIFISVDMDVLDQSHAPGCPAIGPGGLYTDELLEAVKYIAQQPNVAGIEIVEVDPTLDFRDMTSRAAAHVLLHALKGMKLSPFK", "soluble on expression in E. coli": "soluble"}
{"record_sequence": "MGSETKHSAKVKIVTRESPPSAKEHMRPTKTQILVPPTQSLPNGKKPNFGKSTKQRREPRERTSKTGHEDDKATMVTVNIDAFLHDKAPKKKSCKYKKKKTRQYQDRAAASIDSKPHVAGHTAFAGASFTTDIPHEAALPKPSFV", "soluble on expression in E. coli": "soluble"}
